B1: library; numbered along this chain (parent)
chain: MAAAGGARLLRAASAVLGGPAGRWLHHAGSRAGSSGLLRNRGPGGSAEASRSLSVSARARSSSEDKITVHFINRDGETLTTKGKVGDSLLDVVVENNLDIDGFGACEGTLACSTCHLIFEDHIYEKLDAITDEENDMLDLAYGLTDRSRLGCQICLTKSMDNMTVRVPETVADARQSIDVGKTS

- Variants of: B1
- Protocol Description: scaled log2 fold change in cell abundance, elesclomol vs control (0 = silent mean, 1 = nonsense mean) (scaled log2 ratio); higher = higher viability under elesclomol (loss of FDX1 cuproptosis function);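 also: variant abundance is its share of total variant reads in each endpoint sample, from next-generation sequencing of the integrated ORF PCR-amplified out of genomic DNA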
- Particulars: with HEK293T FDX1 KO; elesclomol 40 nM; glucose 10 mM; 11 days
The label depends only on scaled log2 fold change: class 1 if it is at least 0.4, class 0 if it is smaller.

For orientation, consider the following solved cases.
S52G ... class 0
R147C ... class 0
L117F ... class 0
S63D ... class 0
A174V ... class 0
A12N ... class 1
L138D ... class 1
T114P ... class 1
H70Q ... class 0
L127H ... class 0

Query block: Please indicate if the recorded scaled log2 fold change for `G33P` meets or exceeds 0.4.
Result block: class 0

Query block: // inclusive: scaled log2 fold change at least 0.4? input: `A47D`
Result block: class 1

Query block: Is the recorded value of scaled log2 fold change equal to or greater than 0.4 for this variant? `G29K`
Result block: class 1

Query block: Entry `L98H` : is its scaled log2 fold change no less than 0.4?
Result block: class 1
